Can you tell me MIC A. baumannii ATCC19606 for the items I'm about to list?
Test system: A. baumannii ATCC19606
Details: MH broth pH 7.4, 16–20 h, 37 °C
Method: Antimicrobial activity was determined for all peptides on E. coli W3110, P. aeruginosa PAO1, A. baumannii ATCC19606, K. pneumoniae NCTC418, and methicillin-resistant S. aureus COL and for selected peptides on P. aeruginosa PA14 and the polymyxin B-resistant derivatives PA14 4.13, PA14 4.18, and PA14 2P4 as well as the clinical isolates ZEM-1A and ZEM9A, K. pneumoniae OXA-48, Enterobacter cloacae, Stenotrophomonas maltophilia, B. cenocepacia, and Staphylococus epidermis. […]
Value expressed in µg/mL; do not type the unit.

Task item: Input "CC(C)C[C@H](NC(=O)[C@H](CC(C)C)NC(=O)[C@@H](CC(C)C)NC(=O)[C@H](CCCCN)NC(=O)[C@@H](CC(C)C)NC(=O)[C@@H](CC(C)C)NC(=O)[C@H](CCCCN)NC(=O)[C@@H](CC(C)C)NC(=O)[C@@H](CC(C)C)NC(=O)[C@H](CCCCN)NC(=O)[C@@H](N)CCCCN)C(N)=O" , output reported MIC A. baumannii ATCC19606.
Reply: 32

Task item: Return MIC A. baumannii ATCC19606 (reported value) for this compound: "CC(C)C[C@H](NC(=O)[C@@H](CC(C)C)NC(=O)[C@@H](CC(C)C)NC(=O)[C@H](CCCCN)NC(=O)[C@H](CC(C)C)NC(=O)[C@H](CC(C)C)NC(=O)[C@H](CCCCN)NC(=O)[C@H](CC(C)C)NC(=O)[C@@H](CC(C)C)NC(=O)[C@@H](CCCCN)NC(=O)[C@@H](N)CCCCN)C(N)=O"
Reply: 32

Task item: Give MIC A. baumannii ATCC19606 for the following compound: "CC(C)C[C@H](NC(=O)[C@H](CC(C)C)NC(=O)[C@@H](CCCCN)NC(=O)[C@H](CC(C)C)NC(=O)[C@H](CC(C)C)NC(=O)[C@@H](CCCCN)NC(=O)[C@H](CC(C)C)NC(=O)[C@H](CC(C)C)NC(=O)[C@@H](CCCCN)NC(=O)[C@H](N)CCCCN)C(=O)N[C@H](CC(C)C)C(N)=O"
Reply: 32

Task item: Look up and report measured MIC A. baumannii ATCC19606 for this entry: CC(C)CC(NC(=O)C(CC(C)C)NC(=O)C(CC(C)C)NC(=O)C(CCCCN)NC(=O)C(CC(C)C)NC(=O)C(CC(C)C)NC(=O)C(CCCCN)NC(=O)C(CC(C)C)NC(=O)C(CC(C)C)NC(=O)C(CCCCN)NC(=O)C(N)CCCCN)C(N)=O (racemic)
Reply: 4

Task item: Fill in reported MIC A. baumannii ATCC19606 for this entry: CC(C)CC(NC(=O)C(CC(C)C)NC(=O)C(CC(C)C)NC(=O)C(CCCCN)NC(=O)C(CC(C)C)NC(=O)[C@H](CC(C)C)NC(=O)C(CCCCN)NC(=O)C(CC(C)C)NC(=O)C(CC(C)C)NC(=O)C(CCCCN)NC(=O)C(N)CCCCN)C(N)=O (mixture of isomers) [sr-ln65L^6]
Reply: 8

Task item: Dear colleague, please send me the reported MIC A. baumannii ATCC19606 for "CC(C)C[C@H](NC(=O)[C@H](CCCCN)NC(=O)[C@H](N)CCCCN)C(=O)N[C@@H](CC(C)C)C(=O)N[C@@H](CCCCN)C(=O)N[C@@H](CC(C)C)C(=O)N[C@@H](CC(C)C)C(=O)N[C@@H](CCCCN)C(=O)N[C@@H](CC(C)C)C(=O)N[C@@H](CC(C)C)C(=O)N[C@H](CC(C)C)C(N)=O" when you can.
Reply: 0.5

Task item: Answer with reported MIC A. baumannii ATCC19606 of "CC(C)C[C@H](NC(=O)[C@H](CC(C)C)NC(=O)[C@H](CC(C)C)NC(=O)[C@H](CCCCN)NC(=O)[C@H](CC(C)C)NC(=O)[C@H](CC(C)C)NC(=O)[C@@H](CCCCN)NC(=O)[C@H](CC(C)C)NC(=O)[C@H](CC(C)C)NC(=O)[C@@H](CCCCN)NC(=O)[C@H](N)CCCCN)C(N)=O"
Reply: 2

====

Tested on: K. pneumoniae NCTC418
Conditions: MH broth pH 7.4, 16–20 h, 37 °C
Description: Antimicrobial activity was determined for all peptides on E. coli W3110, P. aeruginosa PAO1, A. baumannii ATCC19606, K. pneumoniae NCTC418, and methicillin-resistant S. aureus COL and for selected peptides on P. aeruginosa PA14 and the polymyxin B-resistant derivatives PA14 4.13, PA14 4.18, and PA14 2P4 as well as the clinical isolates ZEM-1A and ZEM9A, K. pneumoniae OXA-48, Enterobacter cloacae, Stenotrophomonas maltophilia, B. cenocepacia, and Staphylococus epidermis. […]
PARAMETER MEASURED: MIC K. pneumoniae NCTC418

Task item: With K. pneumoniae NCTC418 as the test system, provide measured MIC K. pneumoniae NCTC418 for this compound: CC(C)CC(NC(=O)C(CC(C)C)NC(=O)C(CC(C)C)NC(=O)C(CCCCN)NC(=O)C(CC(C)C)NC(=O)C(CC(C)C)NC(=O)C(CCCCN)NC(=O)C(CC(C)C)NC(=O)C(CC(C)C)NC(=O)C(CCCCN)NC(=O)C(N)CCCCN)C(N)=O (racemic)
Reply: 16 to 32 µg/mL

Task item: State recorded MIC K. pneumoniae NCTC418 with K. pneumoniae NCTC418, entry CC(C)CC(NC(=O)C(CC(C)C)NC(=O)C(CC(C)C)NC(=O)C(CCCCN)NC(=O)C(CC(C)C)NC(=O)[C@H](CC(C)C)NC(=O)C(CCCCN)NC(=O)C(CC(C)C)NC(=O)C(CC(C)C)NC(=O)C(CCCCN)NC(=O)C(N)CCCCN)C(N)=O (mixture of isomers) [sr-ln65L^6] , no comment.
Reply: 16 to 32 µg/mL

Task item: Jot down MIC K. pneumoniae NCTC418 (K. pneumoniae NCTC418) of "CC(C)C[C@H](NC(=O)[C@H](CC(C)C)NC(=O)[C@@H](CCCCN)NC(=O)[C@H](CC(C)C)NC(=O)[C@H](CC(C)C)NC(=O)[C@@H](CCCCN)NC(=O)[C@@H](CC(C)C)NC(=O)[C@H](CC(C)C)NC(=O)[C@H](CCCCN)NC(=O)[C@@H](N)CCCCN)C(=O)N[C@H](CC(C)C)C(N)=O" .
Reply: >64 µg/mL

Task item: Using K. pneumoniae NCTC418 as the test system, report measured MIC K. pneumoniae NCTC418 of "CC(C)C[C@H](NC(=O)[C@H](CCCCN)NC(=O)[C@H](CC(C)C)NC(=O)[C@H](CC(C)C)NC(=O)[C@@H](CCCCN)NC(=O)[C@H](N)CCCCN)C(=O)N[C@@H](CC(C)C)C(=O)N[C@@H](CCCCN)C(=O)N[C@@H](CC(C)C)C(=O)N[C@H](CC(C)C)C(=O)N[C@H](CC(C)C)C(N)=O" .
Reply: >64 µg/mL

====

Test system: K. pneumoniae NCTC418
Conditions: supplementary CSV; ranges of Table 1 given as one number
So I've got a bunch of molecules here, and I need their MIC K. pneumoniae NCTC418 values.
Could you give me the number in µg/mL? Just the number is fine.

Task item: Give a short answer stating reported MIC K. pneumoniae NCTC418 for "CC(C)C[C@H](NC(=O)[C@H](CC(C)C)NC(=O)[C@H](CC(C)C)NC(=O)[C@H](CCCCN)NC(=O)[C@H](CC(C)C)NC(=O)[C@H](CC(C)C)NC(=O)[C@H](CCCCN)NC(=O)[C@H](CC(C)C)NC(=O)[C@H](CC(C)C)NC(=O)[C@H](CCCCN)NC(=O)[C@@H](N)CCCCN)C(N)=O" .
Reply: 4

Task item: Fill in MIC K. pneumoniae NCTC418 for record "CC(C)C[C@@H](NC(=O)[C@@H](CC(C)C)NC(=O)[C@@H](CC(C)C)NC(=O)[C@@H](CCCCN)NC(=O)[C@@H](CC(C)C)NC(=O)[C@@H](CC(C)C)NC(=O)[C@@H](CCCCN)NC(=O)[C@@H](CC(C)C)NC(=O)[C@@H](CC(C)C)NC(=O)[C@@H](CCCCN)NC(=O)[C@H](N)CCCCN)C(N)=O"
Reply: 4

Task item: Check the records and state MIC K. pneumoniae NCTC418 for "CC(C)C[C@H](NC(=O)[C@H](CC(C)C)NC(=O)[C@H](CC(C)C)NC(=O)[C@@H](CCCCN)NC(=O)[C@@H](CC(C)C)NC(=O)[C@@H](CC(C)C)NC(=O)[C@@H](CCCCN)NC(=O)[C@@H](CC(C)C)NC(=O)[C@H](CC(C)C)NC(=O)[C@H](CCCCN)NC(=O)[C@@H](N)CCCCN)C(N)=O"
Reply: 64

Task item: Return the recorded MIC K. pneumoniae NCTC418 value; entry: "CC(C)C[C@H](NC(=O)[C@H](CC(C)C)NC(=O)[C@H](CC(C)C)NC(=O)[C@H](CCCCN)NC(=O)[C@@H](CC(C)C)NC(=O)[C@H](CC(C)C)NC(=O)[C@H](CCCCN)NC(=O)[C@@H](CC(C)C)NC(=O)[C@@H](CC(C)C)NC(=O)[C@@H](CCCCN)NC(=O)[C@@H](N)CCCCN)C(N)=O"
Reply: 6

Task item: Please give measured MIC K. pneumoniae NCTC418 of the following entry: "CC(C)C[C@H](NC(=O)[C@@H](CC(C)C)NC(=O)[C@@H](CC(C)C)NC(=O)[C@H](CCCCN)NC(=O)[C@H](CC(C)C)NC(=O)[C@H](CC(C)C)NC(=O)[C@H](CCCCN)NC(=O)[C@H](CC(C)C)NC(=O)[C@@H](CC(C)C)NC(=O)[C@@H](CCCCN)NC(=O)[C@@H](N)CCCCN)C(N)=O"
Reply: 48

Task item: Indicate the recorded MIC K. pneumoniae NCTC418 value for this molecule: "CC(C)C[C@H](NC(=O)[C@H](CC(C)C)NC(=O)[C@H](CC(C)C)NC(=O)[C@H](CCCCN)NC(=O)[C@H](CC(C)C)NC(=O)[C@H](CC(C)C)NC(=O)[C@@H](CCCCN)NC(=O)[C@H](CC(C)C)NC(=O)[C@H](CC(C)C)NC(=O)[C@@H](CCCCN)NC(=O)[C@H](N)CCCCN)C(N)=O"
Reply: 4

Task item: For the molecule "CC(C)C[C@@H](NC(=O)[C@@H](CC(C)C)NC(=O)[C@@H](CC(C)C)NC(=O)[C@H](CCCCN)NC(=O)[C@@H](CC(C)C)NC(=O)[C@@H](CC(C)C)NC(=O)[C@H](CCCCN)NC(=O)[C@@H](CC(C)C)NC(=O)[C@@H](CC(C)C)NC(=O)[C@H](CCCCN)NC(=O)[C@@H](N)CCCCN)C(N)=O" , give its reported MIC K. pneumoniae NCTC418.
Reply: 4

Task item: Look up and report measured MIC K. pneumoniae NCTC418 for this entry: "CC(C)C[C@H](NC(=O)[C@H](CC(C)C)NC(=O)[C@H](CC(C)C)NC(=O)[C@H](CCCCN)NC(=O)[C@H](CC(C)C)NC(=O)[C@H](CC(C)C)NC(=O)[C@H](CCCCN)NC(=O)[C@H](CC(C)C)NC(=O)[C@H](CC(C)C)NC(=O)[C@@H](CCCCN)NC(=O)[C@@H](N)CCCCN)C(N)=O"
Reply: 6
